assaySystem: mutant MGL (mut-MGLL 11-313 L179S L186S) (Homo sapiens, UniProt Q99685, L169S/L176S)
Construct: purified mutant MGL (mut-MGLL 11-313 L179S L186S)
Sequence (Q99685 whole entry L169S/L176S): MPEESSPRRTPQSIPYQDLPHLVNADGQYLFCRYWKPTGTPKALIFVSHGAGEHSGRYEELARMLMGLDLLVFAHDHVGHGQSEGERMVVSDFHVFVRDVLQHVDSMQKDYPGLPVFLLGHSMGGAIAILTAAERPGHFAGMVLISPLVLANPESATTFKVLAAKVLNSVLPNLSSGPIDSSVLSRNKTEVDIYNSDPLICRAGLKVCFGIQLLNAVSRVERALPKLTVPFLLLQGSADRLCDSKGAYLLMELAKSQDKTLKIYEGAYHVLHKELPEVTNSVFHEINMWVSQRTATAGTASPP
protocolNotes: MGL Enzyme Activity Assay, purified mutant MGL, 4MU-B substrate
conditionsUsed: mutant MGL 5 nM, 4MU-B 10 μM, 37° C.; read-out: MGL mutant inh IC50
attributeMeasured: IC50 (nM)

Please review the following examples before continuing.
compound	uom	IC50
O=C(c1cc2cc(-c3ccccc3)ccc2s1)N1CC(N2CC(N3Cc4ccccc4C3=O)C2)C1 [Cpd 79]	nM	18
O=C(NC1CN(C2CN(C(=O)c3ccc4nc(-c5ccccc5)oc4c3)C2)C1)c1nccs1 [Cpd 17]	nM	48
O=C(c1cc2ccc(Br)cc2s1)N1CC(N2CC(N3Cc4ccccc4C3=O)C2)C1 [Cpd 87]	nM	50

[a] O=C(c1ccc(-c2ccc(C(F)(F)F)s2)cc1)N1CC(N2CC(N3Cc4ccccc4C3=O)C2)C1 [Cpd 76]
[b] O=C(c1ccc2c(ccn2-c2ccc(C(F)(F)F)cc2)c1)N1CC(N2CC(N3Cc4ccccc4C3=O)C2)C1 [Cpd 70]
QUERY: Select the item whose IC50 value is smaller, choosing between a and b . Mark your answer with the label of the selected entry.
RESULT: b
(b: 8 nM, a: 15 nM)

[P] O=C(NC1CN(C2CN(C(=O)c3ccc4oc(-c5ccccc5)nc4c3)C2)C1)c1nccs1 [Cpd 35]
[Q] O=C(c1sc2cc(Br)ccc2c1Cl)N1CC(N2CC(N3Cc4ccccc4C3=O)C2)C1 [Cpd 73]
[R] O=C(NC1CN(C2CN(C(=O)c3ccc4cc(Br)ccc4c3)C2)C1)c1ccccc1 [Cpd 42]
QUERY: Rank descending by IC50. Field: ranking. Enter the labels in the order requested.
RESULT: R, P, Q

---

assaySystem: MGL (Rattus norvegicus, UniProt Q8R431)
Construct: one g rat brain was homogenized using a Polytron homogenizer; from tissue; host or cells: rat brain homogenate
protocolNotes: 2-AG Accumulation Assay in rat brain homogenate
Assay type: biochemical
conditionsUsed: compound @1 µM, percent of vehicle, read-out: Rat Brain 2AG % VehCntrl (%) @1 µM
attributeMeasured: activity at 1 µM (%)

[A] Cc1cc(-c2cccc(C(F)(F)F)c2)ccc1C(=O)N1CC(N2CC(NC(=O)c3nccs3)C2)C1
[B] O=C(NC1CN(C2CN(C(=O)c3ccc4c(ccn4-c4ccc(F)c(F)c4)c3)C2)C1)c1nccs1
[C] O=C(NC1CN(C2CN(C(=O)c3ccc4c(ccn4S(=O)(=O)c4ccccc4)c3)C2)C1)c1nccs1
[D] CS(=O)(=O)c1cccc(-c2ccc3cc(C(=O)N4CC(N5CC(N6Cc7ccccc7C6=O)C5)C4)sc3c2)c1
QUERY: // ascending sort on recorded activity at 1 µM Field: ranking. Enter the labels in the order requested.
RESULT: A, C, B, D

[A] CS(=O)(=O)c1cccc(-c2ccc(C(=O)N3CC(N4CC(NC(=O)c5nccs5)C4)C3)cc2)c1
[B] Cc1c(C(=O)N2CC(N3CC(NC(=O)c4nccs4)C3)C2)sc2cc(Br)ccc12
QUERY: When their activity at 1 µM values are compared, which is larger, A or B ? Mark your answer with the label of the selected entry.
RESULT: B

[1] CS(=O)(=O)c1cccc(-c2ccc(C(=O)N3CC(N4CC(N5Cc6ccccc6C5=O)C4)C3)cc2)c1
[2] O=C(c1ccc2c(ccn2-c2ccc(C(F)(F)F)cc2)c1)N1CC(N2CC(N3Cc4scnc4C3=O)C2)C1
QUERY: Select the item whose activity at 1 µM value is smaller, choosing between 1 and 2 . Mark your answer with the label of the selected entry.
RESULT: 1
(1: 166%, 2: 414%)

[a] O=C(NC1CN(C2CN(C(=O)c3ccc(-c4cccc(C(F)(F)F)c4)cc3F)C2)C1)c1nccs1
[b] Cc1c(C(=O)N2CC(N3CC(NC(=O)c4nccs4)C3)C2)sc2cc(C(F)(F)F)ccc12
[c] O=C(NC1CN(C2CN(C(=O)c3cc4ccc(C(F)(F)F)cc4s3)C2)C1)c1cscn1
[d] O=C(NC1CN(C2CN(C(=O)c3ccc(-c4cccc(C(F)(F)F)c4)cc3)C2)C1)c1cscn1
QUERY: Hi! Can you put these in order of activity at 1 µM, lowest number first? Field: ranking. Enter the labels in the order requested.
RESULT: c, a, b, d
